Reference source: patent US11098041B2

SYSTEM_TESTED: BTK C481S (His-TEV-hsBTK(328-659)(C481S)) (Homo sapiens (Human), UniProt Q06187, C481S)
Sequence (Q06187 328-659 C481S): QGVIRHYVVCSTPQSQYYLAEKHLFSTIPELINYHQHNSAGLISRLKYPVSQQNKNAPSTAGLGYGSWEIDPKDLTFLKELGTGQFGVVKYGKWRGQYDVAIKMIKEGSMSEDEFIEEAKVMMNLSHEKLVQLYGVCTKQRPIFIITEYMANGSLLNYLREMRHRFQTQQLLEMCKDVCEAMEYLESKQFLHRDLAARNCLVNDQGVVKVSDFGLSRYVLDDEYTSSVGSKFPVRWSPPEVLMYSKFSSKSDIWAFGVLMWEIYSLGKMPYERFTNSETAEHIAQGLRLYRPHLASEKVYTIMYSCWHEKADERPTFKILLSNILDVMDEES
ASSAY_TEXT: Assay B: microfluidic off-chip mobility shift assay against BTK C481S enzyme
APPLIED_CONDITIONS: BTK C481S mutant
Experimental: The mechanics of the assay platform are described by the vendor (PerkinElmer, Hopkinton, Mass.) on their website at the following URL: http://caliperls.com. 5 uL of enzyme buffer and 7.5 uL of ATP/KinKDR peptide substrate mix were added to Matrix (#4315) 384-well, sterile, flat-bottom polypropylene plates (Thermo Fisher Scientific, Hudson, N.H.) with 125 nL of serially diluted compounds prepared in 100% DMSO, and incubated for 90 min. at 25° C. […]
EXPERIMENTAL_ENDPOINT: IC50

Which value of IC50 has been reported for `Cn1cc(-c2nc3c(-c4cccc(NC(=O)c5noc(C(C)(C)C)n5)c4CO)ccnc3[nH]2)cn1` in the records?
100 to 1000 nM

Which value of IC50 has been reported for `CN(C)c1ccc(-c2nc3c(-c4ccc(C5(NC(=O)c6ccc(C(C)(C)C)cc6)CC5)cc4)ccnc3[nH]2)nc1` in the records?
100 to 1000 nM

Which value of IC50 has been reported for `CC(C)(C)c1noc(C(=O)NCc2ccc(-c3ccnc4[nH]c(-c5ccncc5)nc34)cc2F)n1` in the records?
< 100 nM

Which value of IC50 has been reported for `Cn1cc(-c2nc3c(-c4ccc(C5(NC(=O)c6noc(C(C)(C)C)n6)CC5)cc4)ccnc3[nH]2)cn1` in the records?
< 100 nM

----------
SYSTEM_TESTED: LCK (Homo sapiens (Human), UniProt P06239)
Sequence (P06239 whole entry): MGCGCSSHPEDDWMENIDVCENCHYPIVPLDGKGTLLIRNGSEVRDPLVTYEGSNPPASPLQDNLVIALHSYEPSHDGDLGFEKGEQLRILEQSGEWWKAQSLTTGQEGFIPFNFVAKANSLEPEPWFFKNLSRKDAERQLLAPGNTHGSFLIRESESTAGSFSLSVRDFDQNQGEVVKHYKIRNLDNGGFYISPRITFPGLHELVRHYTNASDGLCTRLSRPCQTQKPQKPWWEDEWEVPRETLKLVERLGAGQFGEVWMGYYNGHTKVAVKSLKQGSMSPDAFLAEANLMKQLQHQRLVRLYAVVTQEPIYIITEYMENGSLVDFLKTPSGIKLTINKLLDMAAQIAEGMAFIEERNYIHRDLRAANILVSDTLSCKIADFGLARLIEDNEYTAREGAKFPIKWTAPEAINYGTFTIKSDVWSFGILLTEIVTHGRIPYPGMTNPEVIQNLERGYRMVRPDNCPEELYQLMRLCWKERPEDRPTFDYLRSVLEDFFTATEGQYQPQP
ASSAY_TEXT: Assay E: LCK biochemical assay (HotSpot Kinase Assay)
EXPERIMENTAL_ENDPOINT: IC50 (µM)
Return type: number; implicit unit µM.

Which value of IC50 has been reported for `CC(C)(C)c1nc(C(=O)NCc2ccc(-c3ccnc4[nH]c(-c5ccc(N6CCC(O)CC6)cn5)nc34)cc2F)no1` in the records?
585

----------
Answer each item with its documented IC50.
SYSTEM_TESTED: BTK C481S (His-TEV-hsBTK(328-659)(C481S)) (Homo sapiens (Human), UniProt Q06187, C481S)
ASSAY_TEXT: Assay B: microfluidic off-chip mobility shift assay against BTK C481S enzyme
APPLIED_CONDITIONS: BTK C481S mutant

Test system BTK C481S (His-TEV-hsBTK(328-659)(C481S)) (Homo sapiens (Human), UniProt Q06187, C481S); read-out IC50; what value for `Cn1cc(-c2nc3c(-c4ccc(CN5Cc6cc(C(C)(C)C)sc6C5=O)c(F)c4)ccnc3[nH]2)cn1` ?
< 100 nM

Test system BTK C481S (His-TEV-hsBTK(328-659)(C481S)) (Homo sapiens (Human), UniProt Q06187, C481S); read-out IC50; what value for `Cn1cc(-c2nc3c(-c4ccc(CNC(=O)c5csc(C(F)(F)F)n5)c(F)c4)ccnc3[nH]2)cn1` ?
100 to 1000 nM

Test system BTK C481S (His-TEV-hsBTK(328-659)(C481S)) (Homo sapiens (Human), UniProt Q06187, C481S); read-out IC50; what value for `Cn1cc(-c2nc3c(-c4ccc(CO)c(F)c4)ccnc3[nH]2)cn1` ?
100 to 1000 nM

Test system BTK C481S (His-TEV-hsBTK(328-659)(C481S)) (Homo sapiens (Human), UniProt Q06187, C481S); read-out IC50; what value for `CC(C)(C)c1ccc2c(c1)CCN(Cc1ccc(-c3ccnc4[nH]c(-c5ccc(C(=O)N6CCOCC6)cc5)nc34)cc1)C2=O` ?
< 100 nM

----------
EXPERIMENTAL_ENDPOINT: IC50

Test system full-length human BTK (Homo sapiens (Human), UniProt Q06187); read-out IC50; what value for Cn1cc(-c2nc3c(-c4cccc(NC(=O)c5noc(C6CC6)n5)c4CO)ccnc3[nH]2)cn1 [Example 44] ?
1 to 5 µM

Test system full-length human BTK (Homo sapiens (Human), UniProt Q06187); read-out IC50; what value for Cn1cc(-c2nc3c(-c4cccc(NC(=O)N5CC(OC(C)(C)C)C5)c4CO)ccnc3[nH]2)cn1 [Example 91] ?
< 0.1 µM

Test system full-length human BTK (Homo sapiens (Human), UniProt Q06187); read-out IC50; what value for Cn1cc(-c2nc3nccc(-c4cccc(N5CCOc6cc(C7CC7)cc(F)c6C5=O)c4CO)c3[nH]2)cn1 [Example 42] ?
< 0.1 µM

Test system full-length human BTK (Homo sapiens (Human), UniProt Q06187); read-out IC50; what value for Cn1cc(-c2nc3c(-c4ccc(CN5Cc6cc(C7CC7)sc6C5=O)c(F)c4)ccnc3[nH]2)cn1 [Example 93] ?
< 0.1 µM

Test system full-length human BTK (Homo sapiens (Human), UniProt Q06187); read-out IC50; what value for Cn1cc(-c2nc3c(-c4cnc(CNC(=O)c5nnc(C(C)(C)C)o5)c(F)c4)ccnc3[nH]2)cn1 [Example 13] ?
0.1 to 1 µM

Test system full-length human BTK (Homo sapiens (Human), UniProt Q06187); read-out IC50; what value for CN1CCN(Cc2ccc(-c3nc4c(-c5ccc(CNC(=O)c6noc(C(C)(C)C)n6)c(F)c5)ccnc4[nH]3)cc2)CC1 [Example 71] ?
< 0.1 µM

Test system full-length human BTK (Homo sapiens (Human), UniProt Q06187); read-out IC50; what value for CN(C)c1ccc(-c2nc3c(-c4ccc(CNC(=O)c5noc(C(C)(C)C)n5)c(F)c4)ccnc3[nH]2)cc1 [Example 145] ?
< 0.1 µM

Test system full-length human BTK (Homo sapiens (Human), UniProt Q06187); read-out IC50; what value for Cn1cc(-c2nc3c(-c4cccc(NC(=O)c5ccc(C6CC6)nc5)c4CO)ccnc3[nH]2)cn1 [Example 49] ?
< 0.1 µM

Test system full-length human BTK (Homo sapiens (Human), UniProt Q06187); read-out IC50; what value for Cn1cc(-c2nc3c(-c4ccc(CNC(=O)c5cnc(C6CC6)o5)c(F)c4)ccnc3[nH]2)cn1 [Example 18] ?
< 0.1 µM

Test system full-length human BTK (Homo sapiens (Human), UniProt Q06187); read-out IC50; what value for Cn1cc(-c2nc3c(-c4ccc(CNC(=O)CCC(C)(C)C)c(F)c4)ccnc3[nH]2)cn1 [Example 21] ?
< 0.1 µM

Test system full-length human BTK (Homo sapiens (Human), UniProt Q06187); read-out IC50; what value for CC(C)(C)c1noc(C(=O)NCc2ccc(-c3ccnc4[nH]c(-c5ccncc5)nc34)cc2F)n1 [Example 150] ?
< 0.1 µM

Test system full-length human BTK (Homo sapiens (Human), UniProt Q06187); read-out IC50; what value for COc1cccc(-c2nc3c(-c4ccc(CNC(=O)c5ccc(C6CC6)cc5)c(F)c4)ccnc3[nH]2)c1 [Example 64] ?
< 0.1 µM

Test system full-length human BTK (Homo sapiens (Human), UniProt Q06187); read-out IC50; what value for CN1CCN(Cc2ccc(-c3nc4c(-c5cccc(N6CCOc7cc(C8CC8)cc(F)c7C6=O)c5CO)ccnc4[nH]3)nc2)CC1 [Example 35] ?
< 0.1 µM

Test system full-length human BTK (Homo sapiens (Human), UniProt Q06187); read-out IC50; what value for Cn1cc(-c2nc3c(-c4ccc(C(C)(C)NC(=O)C(N)=O)c(F)c4)ccnc3[nH]2)cn1 [Example 102] ?
1 to 5 µM

Test system full-length human BTK (Homo sapiens (Human), UniProt Q06187); read-out IC50; what value for COc1ccc(-c2nc3c(-c4ccc(CNC(=O)c5nc(C(C)(C)C)no5)c(F)c4)ccnc3[nH]2)nc1 [Example 161] ?
< 0.1 µM

----------
SYSTEM_TESTED: BTK C481S (His-TEV-hsBTK(328-659)(C481S)) (Homo sapiens (Human), UniProt Q06187, C481S)
ASSAY_TEXT: Assay B: microfluidic off-chip mobility shift assay against BTK C481S enzyme
Assay type: biochemical
APPLIED_CONDITIONS: BTK C481S mutant
EXPERIMENTAL_ENDPOINT: IC50

Which value of IC50 has been reported for Cn1cc(-c2nc3c(-c4ccc(CNC(=O)CCC(C)(C)C)c(F)c4)ccnc3[nH]2)cn1 [Example 21] in the records?
< 100 nM

Which value of IC50 has been reported for CC(C)(C)c1ccc(C(=O)NCc2ccc(-c3ccnc4[nH]c(C5CC5)nc34)cc2F)cc1 [Example 26] in the records?
< 100 nM

Which value of IC50 has been reported for Cc1cc(-c2ccnc3[nH]c(-c4cnn(C)c4)nc23)ccc1CNC(=O)c1nnc(C(C)(C)C)o1 [Example 103] in the records?
< 100 nM

Which value of IC50 has been reported for Cc1cc(-c2ccnc3[nH]c(-c4cnn(C)c4)nc23)ccc1CNC(=O)C(N)=O [Example 101] in the records?
1000 to 5000 nM

Which value of IC50 has been reported for COc1ccc(-c2nc3c(-c4ccc(CNC(=O)c5ccc(C(C)(C)C)cc5)c(F)c4)ccnc3[nH]2)cc1 [Example 62] in the records?
< 100 nM

Which value of IC50 has been reported for Cc1ccc(-n2ccn(-c3cccc(-c4ccnc5[nH]c(-c6ccc(C(=O)N7CCOCC7)cc6)nc45)c3C)c2=O)cc1 [Example 95] in the records?
1000 to 5000 nM

Which value of IC50 has been reported for Cn1cc(-c2nc3c(-c4ccc(CNC(=O)c5noc(C(C)(C)N)n5)c(F)c4)ccnc3[nH]2)cn1 [Example 58] in the records?
< 100 nM

Which value of IC50 has been reported for CC(C)(C)c1nc(C(=O)NCc2ccc(-c3ccnc4[nH]c(-c5ccc(N6CCCCC6)cn5)nc34)cc2F)no1 [Example 83] in the records?
< 100 nM

Which value of IC50 has been reported for Cc1c(CNC(=O)c2noc(C(C)(C)C)n2)cccc1-c1ccnc2[nH]c(-c3cnn(C)c3)nc12 [Example 88] in the records?
> 5000 nM

Which value of IC50 has been reported for COc1ncccc1-c1nc2c(-c3ccc(CNC(=O)c4nc(C(C)(C)C)no4)c(F)c3)ccnc2[nH]1 [Example 151] in the records?
< 100 nM

Which value of IC50 has been reported for Cn1cc(-c2nc3c(-c4ccc(Cn5ncc6cc(C(C)(C)C)cc(F)c6c5=O)c(F)c4)ccnc3[nH]2)cn1 [Example 99] in the records?
< 100 nM

Which value of IC50 has been reported for COc1ccnc(-c2nc3c(-c4ccc(CNC(=O)c5noc(C(C)(C)C)n5)c(F)c4)ccnc3[nH]2)c1 [Example 75] in the records?
< 100 nM

Which value of IC50 has been reported for CN1CC=C(c2ccc(-c3nc4c(-c5ccc(CNC(=O)c6noc(C(C)(C)C)n6)c(F)c5)ccnc4[nH]3)cc2)CC1 [Example 86, Trifluoroacetic Acid] in the records?
< 100 nM

Which value of IC50 has been reported for CN1CCN(c2ccc(-c3nc4c(-c5ccc(CNC(=O)c6noc(C(C)(C)C)n6)c(F)c5)ccnc4[nH]3)nc2)CC1 [Example 79] in the records?
< 100 nM
